- tgt: ZFP SBS#388 (synthetic)
- Sequence (chain, as listed by the source): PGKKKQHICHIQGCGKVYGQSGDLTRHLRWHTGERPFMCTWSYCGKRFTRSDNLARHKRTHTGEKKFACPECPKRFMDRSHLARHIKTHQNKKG
- assay: EMSA
- measurement context: tags: MBP fusion
quantity name: pKd
Reminder that pKd means the negative base-10 logarithm of the concentration expressed in mol/L.

Short answer for GGCGAGGCAA (dsDNA) DNA 1: GGCGAGGCAA DNA 2: TTGCCTCGCC : pKd was 7.55
